Measured values drawn from PubChem BioAssay AID1030 for this set.

# assayTarget: Aldehyde dehydrogenase 1A1 (Homo sapiens) (UniProt P00352)
# Sequence (P00352 whole entry, looked up): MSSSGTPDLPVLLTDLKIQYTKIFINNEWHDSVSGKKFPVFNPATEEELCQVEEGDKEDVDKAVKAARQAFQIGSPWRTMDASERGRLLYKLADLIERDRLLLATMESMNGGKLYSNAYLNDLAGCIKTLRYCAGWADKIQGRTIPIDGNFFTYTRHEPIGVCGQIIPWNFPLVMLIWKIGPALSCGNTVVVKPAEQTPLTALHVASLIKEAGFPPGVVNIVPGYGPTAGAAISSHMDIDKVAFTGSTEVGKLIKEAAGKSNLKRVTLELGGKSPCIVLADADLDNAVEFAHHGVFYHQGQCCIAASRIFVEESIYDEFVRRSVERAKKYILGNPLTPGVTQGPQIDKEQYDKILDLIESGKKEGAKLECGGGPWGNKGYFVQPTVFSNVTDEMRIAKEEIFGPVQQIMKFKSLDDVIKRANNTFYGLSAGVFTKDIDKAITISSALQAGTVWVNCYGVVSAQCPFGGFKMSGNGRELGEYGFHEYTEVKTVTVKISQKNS
# runDescription: qHTS Assay for Inhibitors of Aldehyde Dehydrogenase 1 (ALDH1A1)
# measurementConditions: Purified ALDH1A1, NADH fluorescence, propionaldehyde substrate; series mostly up to 75.3 µM
Screen size: about 220,000 compounds; about 16,000 (7.3%) were called active. Inconclusive results (about 25%) are left out. Calls come from the whole dose curve; as a rule, active = well fitted inhibition curve with a large enough effect (not every such curve was filed as active); inconclusive = small, poorly fitted or top-dose-only effect, or another doubt; inactive = no such curve, though single readings can be large or run the other way. The sample holds actives, similar compounds and a random draw of the others, so the mix is not that of the screen.
Outcome codes: active, inactive

>>> labelclass("O=C(COC(=O)c1cnccn1)Nc1cccc2ccccc12")
"inactive"
>>> labelclass("Cc1cn(C)c(=O)n(C)c1=O")
"inactive"
>>> labelclass("N#C/C(=C\\c1ccc(O)c(O)c1)C(=O)NCc1ccccc1")
"inactive"
>>> labelclass("O=C(N/N=C/c1coc2ccccc2c1=O)c1cc2ccccc2o1")
"active"
>>> labelclass("Cn1c(CCC(=O)Nc2ccccc2F)nnc1SCC(=O)Nc1ccccc1Cl")
"inactive"
>>> labelclass("Cc1ccc(CNC(=O)CC2Sc3ccccc3NC2=O)cc1 (stereo unspecified)")
"inactive"

* * *

# assayTarget: Aldehyde dehydrogenase 1A1 (Homo sapiens) (UniProt P00352)
# runDescription: qHTS Assay for Inhibitors of Aldehyde Dehydrogenase 1 (ALDH1A1)
# measurementConditions: Purified ALDH1A1, NADH fluorescence, propionaldehyde substrate; series mostly up to 75.3 µM
Hit rate of the full screen: of about 220,000 compounds, about 16,000 (7.3%) were called active. Inconclusive results (about 25%) are left out. Calls come from the whole dose curve; as a rule, active = well fitted inhibition curve with a large enough effect (not every such curve was filed as active); inconclusive = small, poorly fitted or top-dose-only effect, or another doubt; inactive = no such curve, though single readings can be large or run the other way. The sample as a whole holds a higher share of actives than the screen did.
Outcome codes: Yes (active), No (inactive)

>>> labelclass("Cc1ccc(/C=N/NC(=O)Cn2ccc(C(F)(F)F)n2)o1")
"No"
>>> labelclass("O=C(COc1ccccc1)Nc1ccc(N2CCN(C(=O)c3cccs3)CC2)cc1")
"No"
>>> labelclass("CC(C)OC(=O)CN1CCN(c2ccc(Cl)cc2)CC1")
"No"
>>> labelclass("CCOC(=O)CN1C(=O)N[C@@H](c2ccc(Br)cc2)C(C(C)=O)=C1C")
"No"
>>> labelclass("Cc1ccnc(SCC(N)=O)n1")
"No"
>>> labelclass("CCCCOC(=O)Cn1c(=O)n(CC(=O)OCCCC)c2cc(C)ccc21")
"No"
>>> labelclass("Cc1cccc2c1N(CCOc1ccccc1)C(=O)C2=O")
"Yes"
>>> labelclass("CC1(C)NC(=O)N(CCOc2cccc(Oc3ccccc3)c2)C1=O")
"No"
>>> labelclass("O=C(N/N=C1\\CCSC1)c1cc(Cl)ccc1O")
"No"
>>> labelclass("Cc1cc(C)cc(OCC(=O)NNC(=O)CCN2C(=O)c3ccccc3C2=O)c1")
"No"
>>> labelclass("CCOC(=O)CN1C(=O)C(=O)c2cc(C)ccc21")
"Yes"
>>> labelclass("COc1ccccc1NC(=O)CCSc1nnc(-c2ccc(O)cc2)o1")
"No"

* * *

# assayTarget: Aldehyde dehydrogenase 1A1 (Homo sapiens)
# runDescription: qHTS Assay for Inhibitors of Aldehyde Dehydrogenase 1 (ALDH1A1); note: potency is the fitted concentration of half-maximal effect
# measurementConditions: Purified ALDH1A1, NADH fluorescence, propionaldehyde substrate; series mostly up to 75.3 µM
The whole screen tested about 220,000 compounds, of which about 16,000 (7.3%) were called active. About 25% were inconclusive and are not listed. The sample holds actives, similar compounds and a random draw of the others, so the mix is not that of the screen.
valueType: Potency

>>> valuereported("CS(=O)(=O)N(Cc1ccccc1Cl)c1ccc(C(=O)NCc2cccnc2)cc1")
"inactive"
>>> valuereported("COc1ccc(CCN=C2SCC(=O)N2Cc2ccccc2)cc1OC")
"inactive"
>>> valuereported("CCOC(=O)C(=O)C1C(=O)Nc2ccccc21 (stereo not given)")
"14.1 µM (active)"
>>> valuereported("CCOc1ccc(C(=O)NC2CCN(CC(=O)NCc3cccs3)CC2)cc1")
"inactive"
>>> valuereported("CC1=C(C)CC(C(=O)NC(C)CCc2ccccc2)C(C(=O)O)C1 (stereo not given)")
"inactive"
>>> valuereported("O=C(C/C(=N\\NC(=O)c1ccccc1Br)C(F)(F)F)c1cccs1")
"inactive"
>>> valuereported("Nc1ncc(-c2cc3ccccc3oc2=O)s1")
"11.2 µM (active)"
>>> valuereported("CCC1SC(CC)C(=O)N(CC(=O)NC2CCCCC2)C1=O (stereo not given)")
"inactive"
>>> valuereported("Cc1ccc(S(=O)(=O)N2CCOCC2)cc1C(=O)OC1CCCCC1=O (stereo not given)")
"inactive"
>>> valuereported("Cc1ccc(NC(=O)c2ccc(Oc3ncccn3)cc2)cc1")
"inactive"
>>> valuereported("O=c1oc2ccccc2cc1-c1csc(Nc2ccc(O)cc2)n1")
"inactive"
>>> valuereported("CC(C)=C1SC(N2CCN(c3cccc(C)c3)CC2)=NC1=O")
"inactive"
>>> valuereported("CC(C)C1=CC2=CC[C@H]3[C@](C)(C(=O)O)CCC[C@]3(C)C2CC1 (stereo not given in full)")
"inactive"
>>> valuereported("CCOc1ccc(NC(=O)CSc2nc3c(c(=O)n2-c2ccccc2OC)SCC3)cc1")
"17.8 µM (active)"
>>> valuereported("Cc1cccc(NS(=O)(=O)c2ccc(C)c(C(N)=O)c2)c1")
"inactive"
>>> valuereported("Cc1onc(-c2c(Cl)cccc2Cl)c1C(=O)c1c[nH]c(C(=O)NC2CC2)c1")
"inactive"
>>> valuereported("Cc1[nH]n(C)c(=O)c1C(=O)c1c(-c2c(Cl)cccc2Cl)noc1C")
"8.91 µM (active)"
>>> valuereported("COc1cccc(NC(=O)CN(C)C(C)C(=O)Nc2ccc(C#N)cc2)c1 (stereo not given)")
"inactive"
>>> valuereported("CCOc1ccc(N(CC(=O)OC)S(=O)(=O)c2c(C)noc2C)cc1")
"inactive"
>>> valuereported("O=C(c1ccc2ccccc2n1)N1CCN(c2ccccc2Cl)CC1")
"inactive"
>>> valuereported("COc1cc(C2CC(=O)N3CN(Cc4ccccc4)CSC3=C2C#N)ccc1OCc1ccccc1 (stereo not given)")
"10 µM (active)"
>>> valuereported("O=c1c(-c2ccccc2)cnc2n1CCS2")
"inactive"
>>> valuereported("CCOc1ccc(NC(=O)NNC(=O)c2ccc(Cl)cc2Cl)cc1")
"inactive"
>>> valuereported("Cc1ccc(S(=O)(=O)NC(=O)N2CCCN(Cc3ccc(F)cc3)CC2)cc1")
"inactive"
>>> valuereported("CC(=O)c1ccc(N2CCN(S(=O)(=O)c3c(C)[nH]c(=O)[nH]c3=O)CC2)cc1")
"inactive"
>>> valuereported("O=C1[C@@H]2C(c3cccnc3)=NO[C@@H]2C(=O)N1c1ccc(Cl)cc1Cl")
"3.55 µM (active)"
>>> valuereported("CCOC(=O)c1sc(NC(=O)CSc2nc3c(c(=O)n2-c2ccccc2)SCC3)c(C(=O)OCC)c1C")
"inactive"
>>> valuereported("CCOC(=O)c1cccc(NC(=O)CN(c2ccc(C)cc2)S(=O)(=O)c2c(C)noc2C)c1")
"7.94 µM (active)"
>>> valuereported("CCc1nnc(NC(=O)CSc2nc3ccccc3c(=O)n2CCCOC)s1")
"inactive"
>>> valuereported("COc1ccc(C2(CNC(=O)Cc3ccc(OC)c(OC)c3)CCCC2)cc1")
"inactive"
>>> valuereported("O=C(c1ccc(F)cc1)n1c(=S)nc2ccccn21")
"25.1 µM (active)"
>>> valuereported("O=S(=O)(NCC1CCCO1)c1cnc(Cl)c(Cl)c1 (stereo not given)")
"3.55 µM (active)"
>>> valuereported("CCOc1ccc(N(CC(=O)NCc2ccc(OC)cc2)S(=O)(=O)c2c(C)noc2C)cc1")
"inactive"
>>> valuereported("O=C(CSc1ncn[nH]1)Nc1ccnc2ccccc12")
"22.4 µM (active)"
>>> valuereported("Cc1onc(-c2c(Cl)cccc2Cl)c1C(=O)NNC(=O)c1c(-c2c(Cl)cccc2Cl)noc1C")
"inactive"
>>> valuereported("CCC(=O)c1ccc(OCC(O)Cn2nc(C)c(C(C)=O)c2C)cc1 (stereo not given)")
"inactive"
>>> valuereported("CC(C)(C)NC(=O)NC(=O)COC(=O)Cc1c(F)cccc1Cl")
"inactive"
>>> valuereported("O=C(c1ccc(F)cc1)N1CCC(n2nnc3ccccc32)CC1")
"inactive"
>>> valuereported("C#CCNc1nc(C(C)C)nc2c1nnn2Cc1ccccc1F")
"11.2 µM (active)"
>>> valuereported("CCOC(=O)C1C(=O)NCC1c1ccccc1 (stereo not given)")
"inactive"
>>> valuereported("CCOC(=O)n1c(SCC(=O)N(CC)CC)nc2ccccc21")
"inactive"
>>> valuereported("COc1ccc2nc(Nc3nc(-c4cc5ccccc5oc4=O)cs3)sc2c1")
"inactive"
>>> valuereported("COC(=O)C(C)C1Sc2ccccc2NC1=O (stereo not given)")
"inactive"
>>> valuereported("CCN(C(=O)CSc1ncn[nH]1)c1cccc2ccccc12")
"25.1 µM (active)"
>>> valuereported("O=C(CSc1ncn[nH]1)Nc1nsc(-c2ccccc2)n1")
"inactive"
